These entries and their values trace back to ChEMBL document CHEMBL1137437.

Assay: Drug level in mouse plasma at 150 mg/kg after 26 hrs
Assay type: ADME, organism-based
Design: dose 150 mg/kg
MEASURE: concentration at 26 h (nM)
Give your result in nM as a bare value.

Query string: If you can, please state the reported concentration at 26 h value of "C[C@H]1CN(c2ccc(C(=O)Nc3ccccc3N)cn2)CCN1C(=O)OCc1ccccc1" .
Result string: 310

---

Assay: Bioavailability in Sprague-Dawley rat at 4 mg/kg, po
Type: ADME, organism-based
Settings: in vivo
MEASURE: bioavailability (%)
Return type: number; implicit unit %.

Query string: Given "C[C@H]1CN(c2ccc(C(=O)Nc3ccccc3N)cn2)CCN1C(=O)OCc1ccccc1" , state its recorded bioavailability.
Result string: 32
